Reference for the values: PubChem BioAssay AID372

- target of assay: Gag-Pol polyprotein (Human immunodeficiency virus type 1 group M subtype B (isolate HXB2)) (UniProt P04585)
- experiment description: RNase H inhibition, HIV 1 Gag Pol polyprotein, FRET biochemical assay, screening (AID 372)
- settings: HIV-1 RT RNase H, FRET RNA/DNA substrate fluorescence; at 10 µM; hits give high values
The campaign covered roughly 100,000 compounds. About 770 (0.77%) were called active. The list comes from a sample in which actives are over-represented; it also holds close analogues and randomly drawn compounds.
Listed below: inhibition values for each entry.
Hi! Could you send only the number? It should be in %, unit omitted.

COc1ccc(N2C(=O)/C(=C/c3ccc(-c4ccc([N+](=O)[O-])c(C)c4)o3)SC2=S)cc1 | 64

Looking up O=C1/C(=C\c2ccc(-c3ccc([N+](=O)[O-])cc3)o2)SC(=S)N1c1ccc(O)cc1 , I see its inhibition listed as 52

Looking up COc1ccc(C2NC(=S)NC(C)=C2C(=O)Nc2ccc(C)c(Cl)c2)cc1 (stereo not given) , I see its inhibition listed as 10

====

- target of assay: Gag-Pol polyprotein (Human immunodeficiency virus type 1 group M subtype B (isolate HXB2)) (UniProt P04585)
- experiment description: RNase H inhibition, HIV 1 Gag Pol polyprotein, FRET biochemical assay, screening (AID 372)
- settings: HIV-1 RT RNase H, FRET RNA/DNA substrate fluorescence; at 10 µM
In all, about 100,000 compounds went through this assay and about 770 (0.77%) were called active. Rule as the data show it: active = inhibition above about 50%; inactive = the rest. This excerpt belongs to a sample that is enriched for actives.
Valid outcomes are listed here; reply with one: yes (1) (active), no (0) (inactive)

Example results:
Cc1ccc(-c2ccccc2)n1-c1ccc(Cl)c(C(=O)O)c1 | no (0)
CCC(=S)/C=C1\Sc2ccc(OC)cc2N1CCCS(=O)(=O)O | no (0)
COc1ccc2ccccc2c1/C=N/NC(=O)c1ccc(-c2ccccc2)cc1 | no (0)
CCOc1ccc(N2C(=O)/C(=C/c3ccc(-c4ccccc4C(=O)O)o3)C(=O)NC2=S)cc1 | no (0)
O=C1CS/C(=N/N=C/c2ccc(-c3ccc(Br)cc3)o2)N1 | no (0)
Cc1ccc(C)n1-c1cc(C(=O)O)cc(C(=O)O)c1 | no (0)
CCOC(=O)C1=C(C)N=c2s/c(=C\c3cc(Br)c(OCc4ccccc4Cl)c(OC)c3)c(=O)n2C1c1ccccc1Cl (stereo not drawn) | no (0)
CC(C)(C)c1ccc(C(C)(C)C)c(Oc2ccccc2)c1O | no (0)

From here, focus on the item given below.
Can you look up the reported call for Cc1ccc(-c2ccccc2)n1-c1ccc(O)c(C(=O)O)c1 for me?
no (0)

====

- target of assay: Gag-Pol polyprotein (Human immunodeficiency virus type 1 group M subtype B (isolate HXB2)) (UniProt P04585)
- experiment description: RNase H inhibition, HIV 1 Gag Pol polyprotein, FRET biochemical assay, screening (AID 372)
- settings: HIV-1 RT RNase H, FRET RNA/DNA substrate fluorescence; at 10 µM; hits give high values
Among all 100,000 compounds or so, about 770 (0.77%) were called active. Shown is part of a subset that was picked to be rich in actives.
Listed below: inhibition values for each entry.
Hi! Could you send only the number? It should be in %, unit omitted.

As a guide, the following entries are already answered.
COc1cc(OC)c(/C=C2\C(=O)NC(=S)N(c3cccc(Cl)c3)C2=O)cc1Br | 9
O=C(Cc1ccc(Cl)cc1)Nc1ccc2oc(-c3ccc(Cl)cc3)nc2c1 | 29
O=Cc1ccc(-c2ccc(OC(F)(F)F)cc2)o1 | 7
O=C(Nc1nc2ccccc2n1Cc1ccc(Cl)cc1)c1ccc(Cl)cc1 | 11
CC(CO)(CO)N=Cc1c(O)n(-c2ccccc2)c(=S)[nH]c1=O | 0

With those in mind, consider the next compound.
Looking up CCc1ccc(-c2nc3cc(NC(=O)Cc4ccc(Cl)cc4)ccc3o2)cc1 , I see its inhibition listed as 25

====

- target of assay: Gag-Pol polyprotein (Human immunodeficiency virus type 1 group M subtype B (isolate HXB2)) (UniProt P04585)
- experiment description: RNase H inhibition, HIV 1 Gag Pol polyprotein, FRET biochemical assay, screening (AID 372)
- settings: HIV-1 RT RNase H, FRET RNA/DNA substrate fluorescence; at 10 µM; hits give high values
Screen size: about 100,000 compounds; about 770 (0.77%) were called active. The sample holds actives, similar compounds and a random draw of the others, so the mix is not that of the screen.
So basically: inhibition at 50% or higher? That is Yes. Lower than 50%? That is No.

O=C(Nc1ccc2c(c1)C(=O)c1ccccc1C2=O)c1ccccc1 | No

Test whether the molecule CCOc1cc(C(=O)Nc2ccc3c(c2)C(=O)c2ccccc2C3=O)cc(OCC)c1OCC records inhibition of 50% or higher.
No

Test whether the molecule O=C1c2ccccc2C(=O)c2cc(NC(=O)c3coc4ccccc34)ccc21 records inhibition of 50% or higher.
Yes

Test whether the molecule O=C(Nc1ccc2c(c1)C(=O)c1ccccc1C2=O)c1cccc(Cl)c1 records inhibition of 50% or higher.
Yes

====

- target of assay: Gag-Pol polyprotein (Human immunodeficiency virus type 1 group M subtype B (isolate HXB2))
- experiment description: RNase H inhibition, HIV 1 Gag Pol polyprotein, FRET biochemical assay, screening (AID 372)
- settings: HIV-1 RT RNase H, FRET RNA/DNA substrate fluorescence; at 10 µM
Hit rate of the full screen: of about 100,000 compounds, about 770 (0.77%) were called active. Cut-off read from the data, not from the text of the source: active = inhibition above about 50%; inactive = the rest. What follows is part of a selection rich in actives, with near analogues and random picks from the rest.
Valid outcomes are listed here; reply with one: active, inactive

COc1ccccc1OCCOc1ccc(C=NNC(=S)Nc2ccccc2)cc1OC | inactive
CCOC(=O)c1c(NC(=O)c2sc3cc(C)ccc3c2Cl)sc(C(N)=O)c1C | inactive
Cc1cccc(N2CCN(C(=O)c3c(-c4ccccc4Cl)noc3C)CC2)c1C | inactive
Cc1ccc(S(=O)(=O)Oc2cccc(/C=C3\SC(N)=NC3=O)c2)cc1 | inactive
O=C1c2cccc3c(Cl)ccc(c23)C(=O)N1O | inactive

Can you look up the reported call for NC1=NC(=O)/C(=C/c2ccc(OS(=O)(=O)c3ccc4ccccc4c3)cc2)S1 for me?
inactive

Can you look up the reported call for O=S(=O)(Oc1ccc2ccccc2c1)c1cc(Cl)c(Cl)cc1Cl for me?
active

Can you look up the reported call for O=C1NC(=S)S/C1=C\c1cccc(OS(=O)(=O)c2cccc([N+](=O)[O-])c2)c1 for me?
inactive

Can you look up the reported call for O=C(Nc1ccc(Cl)c(Cl)c1)OCCOc1ccccc1 for me?
active

Can you look up the reported call for COc1cc(OC)cc(C(=O)Nc2cccc(-c3nc4ccccc4s3)c2)c1 for me?
inactive

Can you look up the reported call for Cc1ccc(S(=O)(=O)Oc2ccc(/C=C3\SC(=S)NC3=O)cc2)cc1[N+](=O)[O-] for me?
active

====

- target of assay: Gag-Pol polyprotein (Human immunodeficiency virus type 1 group M subtype B (isolate HXB2)) (UniProt P04585)
- experiment description: RNase H inhibition, HIV 1 Gag Pol polyprotein, FRET biochemical assay, screening (AID 372)
- settings: HIV-1 RT RNase H, FRET RNA/DNA substrate fluorescence; at 10 µM; hits give high values
Among all 100,000 compounds or so, about 770 (0.77%) were called active. This is one part of a sample in which actives are shown more often than they occur.
readout kind: inhibition (%)
Hi! Could you send only the number? It should be in %, unit omitted.

O=C(O)C1Nc2c(cccc2[N+](=O)[O-])C2C=CCC12 (stereo not given) | 17
COc1cc(/C=N/N2C(=O)C3C4C=CC(C4)C3C2=O)cc(I)c1O (stereo not given) | 56
CCOC(=O)C1=C(c2ccccc2)S/C(=C2/C(=S)C(C)(C)N(C(C)=O)c3ccc(C)cc32)S1 | 24

Looking up O=C1C=CC(=O)C(c2cccc(C(F)(F)F)c2)=C1 , I see its inhibition listed as 71

Looking up Cc1ccc(C2=CC(=O)N(c3cccc(C(F)(F)F)c3)C2=O)cc1 , I see its inhibition listed as 10

Looking up COC(=O)c1c(NC(=O)Cc2ccccc2)sc(C)c1C , I see its inhibition listed as 24

Looking up Cn1c(/C=C/c2ccc(Br)cc2)c([N+](=O)[O-])c(=O)n(C)c1=O , I see its inhibition listed as 6

Looking up O=C(O)C1Nc2ccc(F)cc2C2C=CCC12 (stereo not given) , I see its inhibition listed as 12

Looking up COc1cccc(C(=O)NC(=S)Nc2ccc3oc(-c4ccccc4Cl)nc3c2)c1 , I see its inhibition listed as 12

Looking up CCOC(=O)C1=C(C)N=c2s/c(=C\c3ccc([N+](=O)[O-])o3)c(=O)n2C1c1ccc(SC)cc1 (stereo not given) , I see its inhibition listed as 20

Looking up CCOC(=O)C1=C(c2ccccc2)S/C(=C2/C(=S)C(C)(C)N(C(C)=O)c3ccc(OC)cc32)S1 , I see its inhibition listed as 22

Looking up O=C(Nc1ncccc1Cl)C1CCCO1 (stereo not given) , I see its inhibition listed as 18

Looking up Cc1cc(=O)[nH]c(N/N=C/c2cccnc2)n1 , I see its inhibition listed as 0

Looking up COc1ccc(/C=C2\C(=O)NC(=O)N(c3ccccc3)C2=O)cc1I , I see its inhibition listed as 39

Looking up COC(=O)C1=C(C)N(Cc2cccnc2)C(=O)/C1=C\c1ccc(Br)cc1 , I see its inhibition listed as 14
